# assay target: T1, GFP-9S library array, motif 4 ND N98R;D124N (synthetic construct, N98R;D124N)
# T1 chain: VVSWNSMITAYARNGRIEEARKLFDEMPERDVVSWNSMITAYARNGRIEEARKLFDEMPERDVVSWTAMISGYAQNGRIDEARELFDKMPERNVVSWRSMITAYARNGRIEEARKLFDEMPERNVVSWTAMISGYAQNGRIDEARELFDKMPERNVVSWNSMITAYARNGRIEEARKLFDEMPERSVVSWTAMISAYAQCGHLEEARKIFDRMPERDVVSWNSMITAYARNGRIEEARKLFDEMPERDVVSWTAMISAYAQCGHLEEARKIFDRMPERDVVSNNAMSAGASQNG
# assay procedure: high-throughput RNA pulldown from lysate on Ni-NTA beads; HRP: 50 mM Tris pH 8, 150 mM NaCl, 1 mM beta-mercaptoethanol, 50 ug/ml BSA, 3 ug/ml yeast RNA, 0.5% heparin; ITC and FP: Tris pH 8, 200 mM KCl, 5% glycerol; MST: 50 mM Tris pH 8, 200 mM NaCl, 1 mM DTT, BSA, heparin, 0.05% Tween 20
# stated conditions: tags: N-terminal His-eGFP; label: 5' Cy5
pKd: recorded values
Units for pKd: none; it is -log10 of a concentration expressed in mol/L.

>>> measured_number("AUUAGACGUGA (ssRNA) [Cy5-rpoA-G]")
6.93

Attention now turns to another entry.
Prompt line: Dear colleague, I am looking for the recorded pKd of the following binder: AUUACACGUGA (ssRNA) [Cy5-rpoA]
Response line: 7.01
